Field Kd: reported value for Somatostatin receptor type 1 (Rattus norvegicus, UniProt P28646); entries drawn from several documents.
readoutType: Kd (µM)

The following compounds have reported results that may help.
CN(CCC(=O)N1CCN(c2cccc(F)c2)CC1)CCC1c2ccccc2-c2ccccc21 | 0.00363
CN(CCC(=O)N1CCN(c2ccc3c(c2)OCO3)CC1)CCC1c2ccccc2-c2ccccc21 | 0.00457

1. COc1cccc2c1C[C@H]1C[C@@H](C(=O)N3CCN(c4ccc(C(N)=O)cc4)CC3)CN(C)[C@@H]1C2
2. COc1ccc(Br)c2c1C[C@H]1C[C@@H](C(=O)N3CCN(c4ccc5nsnc5n4)CC3)CN(C)[C@@H]1C2
Response body: label of entry with the larger Kd; valid values 1 , 2 . Returns: label corresponding to the selected item.
1

====

Field Kd: reported value for UniProt:P28646; entries drawn from several documents.
readoutType: Kd (nM)

CN(CCC(=O)N1CCN(c2cccc(C(F)(F)F)c2)CC1)CCC1c2ccccc2-c2ccccc21 | 61.7
COc1cccc2c1C[C@H]1C[C@@H](C(=O)N3CC=C(c4ccccn4)CC3)CN(C)[C@@H]1C2 | 30.2
COc1ccc(C[C@H](C)CN2C[C@@H]3CCCC[C@@H]3[C@H](C(=O)N3CCN(c4ccc(F)c(F)c4)CC3)C2)cn1.O=C(O)/C=C/C(=O)O | 589
CN(CCC(=O)N1CCN(c2ccccc2Cl)CC1)CCC1c2ccccc2-c2ccccc21 | 24
CC(=O)c1cccc2c1C[C@H]1C[C@@H](C(=O)N3CCN(c4ccc([N+](=O)[O-])cc4)CC3)CN(C)[C@@H]1C2 | 6.03
COC(=O)c1ccc(N2CCN(C(=O)[C@@H]3C[C@@H]4Cc5c(cccc5OC)C[C@H]4N(C)C3)CC2)cc1 | 162

1. COc1cccc2c1C[C@H]1C[C@@H](C(=O)N3CCN(c4ncccc4OS(=O)(=O)C(F)(F)F)CC3)CN(C)[C@@H]1C2
2. CN1C[C@H](C(=O)N2CCN(c3ccc([N+](=O)[O-])cc3)CC2)C[C@@H]2Cc3c(O)cccc3C[C@H]21
Smaller Kd value? Options are 1 and 2 Returns: label corresponding to the selected item.
2
(2: 18.6 nM, 1: 562 nM)

1. CC(C)N(CCC(=O)N1CCN(c2ccc([N+](=O)[O-])cc2)CC1)CCC1c2ccccc2-c2ccccc21
2. Cc1ccc(S(=O)(=O)Oc2cccc3c2C[C@H]2C[C@@H](C(=O)N4CCN(c5ccc6nsnc6n5)CC4)CN(C)[C@@H]2C3)cc1
3. COc1cccc2c1C[C@H]1C[C@@H](C(=O)N3CCN(c4cccc(OCc5ccccc5)n4)CC3)CN(C)[C@@H]1C2
4. CN(CCC(=O)N1CCN(c2ccc([N+](=O)[O-])cc2)CC1)CCC1c2ccccc2Sc2ccccc21
Please list these compounds in decreasing order of Kd. The labels, placed in the requested order, form the answer.
3, 4, 1, 2
(3: 105 nM, 4: 12.6 nM, 1: 4.68 nM, 2: 0.575 nM)

====

Field Kd: reported value for Somatostatin receptor type 1 (Rattus norvegicus, UniProt P28646); entries drawn from several documents.
readoutType: Kd (nM)

COc1ccc(Br)c2c1C[C@H]1C[C@@H](C(=O)N3CCN(c4ccc([N+](=O)[O-])cc4)CC3)CN(C)[C@@H]1C2 | 4.57
COc1cccc2c1C[C@H]1C[C@@H](C(=O)N3CCN(c4ccc5nsnc5c4)CC3)CN(C)[C@@H]1C2 | 10.7
COc1cccc2c1C[C@H]1C[C@@H](C(=O)N3CCN(c4cccc(=O)[nH]4)CC3)CN(C)[C@@H]1C2 | 7.59
COc1cccc2c1C[C@H]1C[C@@H](C(=O)N3CCN(c4ccc(O)cc4)CC3)CN(C)[C@@H]1C2 | 631
CN(CCC(=O)N1CCN(c2ccc([N+](=O)[O-])cc2)CC1)CCC1c2ccccc2Cc2ccccc21 | 29.5
COc1cccc2c1C[C@H]1C[C@@H](C(=O)N3CCN(c4cccc(F)c4C#N)CC3)CN(C)[C@@H]1C2 | 2.82

1. COc1cccc2c1C[C@H]1C[C@@H](C(=O)N3CCN(c4ccc([N+](=O)[O-])cc4S(C)(=O)=O)CC3)CN(C)[C@@H]1C2
2. COc1cccc2c1C[C@H]1C[C@@H](C(=O)N3CCN(c4cccc5nonc45)CC3)CN(C)[C@@H]1C2
3. CN(CCC(=O)N1CCN(c2ccc3nonc3c2)CC1)CCC1c2ccccc2-c2ccccc21
4. COc1cccc2c1C[C@H]1C[C@@H](C(=O)N3CC=C(c4ncccn4)CC3)CN(C)[C@@H]1C2
Please list these molecules in decreasing order of Kd. The labels, placed in the requested order, form the answer.
4, 2, 1, 3
(4: 490 nM, 2: 3.63 nM, 1: 1.74 nM, 3: 0.741 nM)
